Organism: Rattus norvegicus
assay info: DrugMatrix - Regimen: Daily Repeat
Type: toxicity, organism-based, Sprague-Dawley
Design: regimen Daily Repeat, gender Male, age 6-8 weeks
measurement setup: in vivo, po, 0 mg/kg, 72 h, tissue Plasma, route oral GAVAGE, dose level Control, time 3 day, vehicle 100 % SALINE
Can you tell me LACTATE DEHYDROGENASE for the items I'm about to list?
Please respond with the number in u/L and leave the unit unwritten.

*Q* For Cc1cc(CC(=O)O)n(C)c1C(=O)c1ccc(Cl)cc1 [ZOMEPIRAC] , what is its reported LACTATE DEHYDROGENASE?
*A* 168.33

*Q* For Oc1ccccc1O , what is its reported LACTATE DEHYDROGENASE?
*A* 168.33

*Q* For CCCc1nn(C)c2c(=O)[nH]c(-c3cc(S(=O)(=O)N4CCN(C)CC4)ccc3OCC)nc12 , what is its reported LACTATE DEHYDROGENASE?
*A* 107

*Q* For CC(=O)OCC(CCn1cnc2cnc(N)nc21)COC(C)=O , what is its reported LACTATE DEHYDROGENASE?
*A* 107

meta.source: ChEMBL document CHEMBL3885881
